binding signal listing for selected binders.
assay_system: NF-kB p65 (RelA) (UniProt Q04206 Q04206:1-551)
Sequence (Q04206 whole entry, one chain of several): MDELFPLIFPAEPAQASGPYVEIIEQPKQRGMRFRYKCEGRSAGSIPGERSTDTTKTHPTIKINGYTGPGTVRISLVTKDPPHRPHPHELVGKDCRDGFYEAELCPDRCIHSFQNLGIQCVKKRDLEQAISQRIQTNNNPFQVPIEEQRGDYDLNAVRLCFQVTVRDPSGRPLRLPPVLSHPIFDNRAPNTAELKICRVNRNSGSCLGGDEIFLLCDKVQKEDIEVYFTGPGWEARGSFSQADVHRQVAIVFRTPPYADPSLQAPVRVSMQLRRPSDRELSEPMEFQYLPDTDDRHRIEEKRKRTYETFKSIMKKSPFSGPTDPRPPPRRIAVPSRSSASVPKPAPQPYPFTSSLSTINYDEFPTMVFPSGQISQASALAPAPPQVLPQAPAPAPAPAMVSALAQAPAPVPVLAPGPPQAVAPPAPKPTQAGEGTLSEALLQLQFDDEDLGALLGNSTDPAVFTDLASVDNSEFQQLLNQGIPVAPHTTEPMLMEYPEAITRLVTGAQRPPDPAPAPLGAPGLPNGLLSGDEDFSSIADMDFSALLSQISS
method_notes: competition
experimental_conditions: protein: extract; tags: native, Jurkat nuclear extract (TransAM NF-kB p65 kit, Active Motif)
readout_kind: binding signal

binder="SEQ-30 (dsDNA) DNA 1: TGAGGGGATTTCCCCCC DNA 2: GGGGGGAAATCCCCTCA" readout_kind="binding signal" observed_value="1.24 IC50 ratio to SEQ-I"
binder="SEQ-24 (dsDNA) DNA 1: TTGAGGGGATTTCCCCC DNA 2: GGGGGAAATCCCCTCAA" readout_kind="binding signal" observed_value="0.52 IC50 ratio to SEQ-I"
binder="SEQ-L (dsDNA) DNA 1: CCTTGAGGGGACTTTCCCCC DNA 2: GGGGGAAAGTCCCCTCAAGG" readout_kind="binding signal" observed_value="0.66 IC50 ratio to SEQ-x"
binder="SEQ-25 (dsDNA) DNA 1: CTTGAGGGGATTTCCCCC DNA 2: GGGGGAAATCCCCTCAAG" readout_kind="binding signal" observed_value="0.41 IC50 ratio to SEQ-I"
binder="SEQ-K (dsDNA) DNA 1: AGTTGAAGGGATTTCCCTAGGC DNA 2: GCCTAGGGAAATCCCTTCAACT" readout_kind="binding signal" observed_value="> 1.48 IC50 ratio to SEQ-x"
binder="SEQ-22 (dsDNA) DNA 1: GAGGGGATTTCCCCC DNA 2: GGGGGAAATCCCCTC" readout_kind="binding signal" observed_value="1.09 IC50 ratio to SEQ-I"
binder="SEQ-37 (dsDNA, PS (*): T*T*G*A*GGGGATTT*C*CCC / antisense 5'-G*G*GGAAA*T*C*CCCTCAA) DNA 1: TTGAGGGGATTTCCCC DNA 2: GGGGAAATCCCCTCAA" readout_kind="binding signal" observed_value="0.015 IC50 ratio to SEQ-x"
